Give measured growth for each item. Keep answers brief.
System: SK-OV-3 ovarian
methodNotes: NCI-60 one-dose screen, 48 h (100 = growth as untreated, 0 = no growth, -100 = all killed)
conditionParameters: 10 µM unless noted
Compounds without any hit were thinned out: in the full panel of roughly 83,000, 20% have a hit. The source made the active and inactive calls. How the source made its calls: active means growth percent below 10; inactive means the rest.

Query block: Bench note: what growth did CC(C)C1=NOC(=O)C1=Cc1cn(-c2ccccc2)nc1-c1cccc([N+](=O)[O-])c1 show?
Result block: 117% (inactive)

Query block: Query O=C(Nc1ccc(C(=O)/C=C/c2ccc(N3CCOCC3)cc2)cc1)Nc1ccc([N+](=O)[O-])cc1 next
Result block: 90.5% (inactive)

Query block: Query Oc1c(CNCCNCc2cc(Cl)cc(Cc3ccccc3)c2O)cc(Cl)cc1Cc1ccccc1 next
Result block: 15.4% (inactive)

Query block: Query c1nc(N2CCOCC2)c2[nH]ccc2n1 next
Result block: 110% (inactive)

Query block: Query CCCCC(CCCCCC(CCCC)C1NC(C)Cc2cc(OC)c(OC)cc21)C1NC(C)Cc2cc(OC)c(OC)cc21 (centres undefined) next
Result block: -87.3% (active)

Query block: Query C=C(C)[C@@H]1CC[C@]2(C)[C@H](CC=C3[C@@H]4[C@@H](C)[C@H](C)CC[C@]4(C(N)=O)CC[C@]32C)[C@@]1(C)CCC#N next
Result block: 5.31% [100 µM] (active)

Query block: Query O=C(CSc1nccc(Nc2ccc(S(=O)(=O)Nc3ccccn3)cc2)n1)c1ccc(Cl)cc1 next
Result block: 95.4% (inactive)

Query block: Query O=C(O)c1cn(C2CC2)c2cc(N3CCN(Cc4cc(Cl)ccc4O)CC3)c(F)cc2c1=O next
Result block: 71% (inactive)

Query block: Query C=CC1=C(C)C2=NC1=CC1=NC(=CC3=C(C)C4=C(O)C(C(=O)O)C(=C5NC(=C2)C(C)C5CCC(=O)O)C4=N3)C(CC)=C1C (centres undefined) next
Result block: 119% (inactive)

Query block: Query O=C(OCc1ccc2c(Cl)cc(Cl)c(O)c2n1)N1CCNCC1 next
Result block: 40.9% (inactive)

Query block: Query Nc1nc(SCc2cccc([N+](=O)[O-])c2)c2[nH]cnc2n1 next
Result block: 109% (inactive)

Query block: Query O=C(CCCCCCSc1nc(-c2ccc(Cl)cc2)cc(-c2ccc(Cl)cc2)n1)NO next
Result block: 17.4% (inactive)

Query block: Query O=c1cc(-c2ccccc2)oc2c(O)c(O)ccc12 next
Result block: 76.7% (inactive)

Query block: Query CCN(CC)CCCCCCNc1cccc2cc(Br)cnc12 next
Result block: 111% (inactive)

Query block: Query COc1cc2c(c(OC)c1)C1c3cc(OC)ccc3NC(=O)N1CC2 (centres undefined) next
Result block: 93.1% (inactive)

Query block: Query CC1(C)OC2[C@@H](CNC(=O)NC(=O)NC(=O)CI)O[C@@H](n3cnc4c(NC(=O)Nc5ccccc5)ncnc43)[C@H]2O1 (some centres undefined) next
Result block: 105% (inactive)

Query block: Query Nc1ccc2c(c1)Cc1cc(NC(=O)C(F)(F)F)ccc1-2 next
Result block: 89.8% (inactive)

Query block: Query CC(C)=CCC[C@](C)(O)[C@H]1CC[C@]2(C)[C@@H]1CC[C@@H]1[C@@]3(C)CC/C(=N/O)C(C)(C)[C@@H]3CC[C@]12C next
Result block: 12.4% [100 µM] (inactive)

Query block: Query O=c1c2c3c(sc2n2cnnc2n1Cc1ccccc1)CCCC3 next
Result block: 106% (inactive)

Query block: Query O=C1Nc2ccccc2/C1=C/C(=O)c1ccc(N2CCCCC2)cc1 next
Result block: 100% (inactive)

Query block: Query Cc1ccc(S(=O)(=O)Oc2ccc(Br)cc2Br)cc1 next
Result block: 79.4% (inactive)

Query block: Query C=C(C)C1CCC2(C(=O)O)CCC3(C)C(CCC4C5(C)CCC(OC(=O)NCc6ccccc6)C(C)(C)C5CCC43C)C12 (centres undefined) next
Result block: 68.9% (inactive)

Query block: Query C/C=C/C1OC23CCCCC2C(C#N)(C(=N)O3)C1(C#N)C#N (centres undefined) next
Result block: 103% (inactive)

Query block: Query COc1ccc(/C=C(/C2=NCCN2)n2ccc3ccccc32)cc1 next
Result block: 97.1% (inactive)

====

System: SN12C renal
methodNotes: NCI-60 one-dose screen, 48 h
conditionParameters: 10 µM unless noted
Procedure: Growth inhibition of the SN12C human tumor cell line is measured as a screen for anti-cancer activity. Cells are grown in 96 well plates and exposed to the test compound for 48 hours. Compounds are tested at a single concentration, which is 10^-5 M for most compounds. The reported endpoint is percent growth (GI% or GIPRCNT), where numbers from 0 - 100% represent growth inhibition, and numbers from -100% - 0 represent cell death. For example, a value of 40 represents 60% growth inhibition. […]
About 83,000 compounds went through this panel and 20% of them were active in at least one assay; those are over-represented in the sample as a whole. Active and inactive are the calls of the source. How the source made its calls: active means growth percent below 10; inactive means the rest.
# valid calls are active, inactive; nothing else

Query block: # fetch the recorded call for C#C[C@]1(O)CC[C@H]2[C@@H]3CC=C4c5nc(Nc6ccc(OC)cc6OC)sc5CC[C@]4(C)[C@H]3CC[C@@]21C here
Result block: inactive

Query block: Query COc1ccc(N(c2nc(-c3ccc([N+](=O)[O-])cc3)cs2)C(C)C)cc1 next
Result block: inactive

Query block: Query N#CC1C(=O)NC(c2ccccc2[N+](=O)[O-])c2sc3c(F)cccc3c21 (stereo not drawn) next
Result block: inactive

Query block: Query CCCCCCSc1ncnc2nc[nH]c12 next
Result block: inactive

Query block: Query O=C1CC(C(F)(F)F)Cc2nc3ccc(Br)cc3cc21 (stereo not drawn) next
Result block: inactive

Query block: Query CCCCCCCCCN(CCCCCCCCC)C(C)C(=O)c1ccc2cc(Br)c3ccccc3c2c1 (stereo not drawn) next
Result block: inactive

Query block: Query COc1ccc(NCc2cn(-c3ccc(C(=O)O)cc3)nc2-c2ccc(C(=O)O)cc2)cc1C(F)(F)F next
Result block: inactive

Query block: Query Fc1cc2[nH]ncc2c2c3c(c(-c4cn[nH]c4C(F)(F)F)nc12)C1CCC3C1 (stereo not drawn) next
Result block: active

Query block: Query C=C(C)C1CCC2(C(=O)O)CCC3(C)C(CCC4C5(C)CCC(OC(=O)NCc6ccccc6)C(C)(C)C5CCC43C)C12 (stereo not drawn) next
Result block: inactive

Query block: Query NS(=O)(=O)c1ccc(CCN2C(=O)/C(=C\c3ccccc3)C=C2c2ccc(Cl)cc2)cc1 next
Result block: inactive

Query block: Query CCn1cc(-c2cc(-c3ccc(Cl)cc3)nc(N)n2)c(-c2ccc(Br)cc2)n1 next
Result block: inactive

Query block: Query COc1ccc2c(c1)C(C)Cc1c(ncnc1-n1cnc3ccccc31)N2C (stereo not drawn) next
Result block: inactive

Query block: Query O=C(O)c1cccc(CN2CCN(c3cc4c(cc3F)c(=O)c(C(=O)O)cn4C3CC3)CC2)c1O next
Result block: inactive

Query block: Query CC(C)C1=NOC(=O)C1=Cc1cn(-c2ccccc2)nc1-c1ccc(Br)cc1 next
Result block: inactive

Query block: Query CCOC(CNC(=O)c1cccc([N+](=O)[O-])c1)OCC next
Result block: inactive

Query block: Query Cc1cc(C)c(S(=O)(=O)/N=c2/n(-c3ccccc3)nc3n2CCN3C2=NCCN2)c(C)c1 next
Result block: inactive

Query block: Query O=C1Nc2ccccc2/C1=C/C(=O)c1ccc(N2CCOCC2)cc1 next
Result block: inactive

Query block: Query c1ccc2c(c1)CN(CCCN1CCOCC1)C2 next
Result block: inactive

Query block: Query C=C(C)[C@@H]1CC[C@]2(COCCCN)CC[C@]3(C)[C@H](CC[C@@H]4[C@@](C)(CCCNCCCN)[C@H](C(=C)C)CC[C@]43C)[C@@H]12 next
Result block: active

Query block: Query O=C1NC(=O)C(Cc2ccc(OCc3ccc(-c4cc(F)c(F)c(F)c4)cc3)cc2)S1 (stereo not drawn) next
Result block: inactive

Query block: Query Nc1nc(SCc2cccc([N+](=O)[O-])c2)c2[nH]cnc2n1 next
Result block: inactive

Query block: Query NC(=O)c1c(NC(=O)COC(=O)Cc2ccccc2F)sc2c1CCC2 next
Result block: inactive

Query block: Query NNC(=O)c1ccc(C(=O)NN)cc1 next
Result block: inactive

Query block: Query O=C(N/N=C/c1c(Cl)cccc1Cl)c1cccc(Nc2ccnc(C(F)(F)F)c2)c1 next
Result block: inactive

Query block: Query COc1ccc(C2=C(c3cn(C)c4ccccc34)C(=O)OC2)cc1OC next
Result block: inactive

Query block: Query O=C(CCCSc1nc(-c2ccccc2)cc(-c2ccccc2)n1)NO next
Result block: inactive

Query block: Query Cc1cccc([N+](=O)[O-])c1I next
Result block: inactive

Query block: Query Cc1cccc(C[C@H](NC(=O)Nc2ccc(Cl)cc2F)C(=O)N[C@@H]2C(=O)N3C[C@H](O)C[C@H]3C(=O)N3CCCC[C@H]3C(=O)N[C@@H](C)C(=O)N3C[C@H](C)C[C@H]3C(=O)O[C@H]2C)c1 next
Result block: active

Query block: Query COc1cc(-c2nc(SCCC(C)C)nc(Nc3ccc(S(N)(=O)=O)cc3)c2C#N)cc(OC)c1OC next
Result block: inactive

Query block: Query Cc1ccc(S(=O)(=O)n2cc(C(=O)C(=O)N3CCCCC3)c3ccccc32)cc1 next
Result block: inactive

Query block: Query CCOC(=O)COc1c(C)cc(SSc2cc(C)c(OCC(=O)OCC)c(C)c2)cc1C next
Result block: inactive

Query block: Query O=C(OCc1ccc2c(Cl)cc(Cl)c(O)c2n1)N1CCN(C(=O)c2cc3cc(F)ccc3[nH]2)CC1 next
Result block: inactive

Query block: Query Cc1ccc(S(=O)(=O)Oc2ccc(Br)cc2Br)cc1 next
Result block: inactive

Source of measurements: PubChem BioAssay (NCI)
